# Measured on: 5-hydroxytryptamine receptor 1A (Homo sapiens)
# Sequence (P08908 whole entry): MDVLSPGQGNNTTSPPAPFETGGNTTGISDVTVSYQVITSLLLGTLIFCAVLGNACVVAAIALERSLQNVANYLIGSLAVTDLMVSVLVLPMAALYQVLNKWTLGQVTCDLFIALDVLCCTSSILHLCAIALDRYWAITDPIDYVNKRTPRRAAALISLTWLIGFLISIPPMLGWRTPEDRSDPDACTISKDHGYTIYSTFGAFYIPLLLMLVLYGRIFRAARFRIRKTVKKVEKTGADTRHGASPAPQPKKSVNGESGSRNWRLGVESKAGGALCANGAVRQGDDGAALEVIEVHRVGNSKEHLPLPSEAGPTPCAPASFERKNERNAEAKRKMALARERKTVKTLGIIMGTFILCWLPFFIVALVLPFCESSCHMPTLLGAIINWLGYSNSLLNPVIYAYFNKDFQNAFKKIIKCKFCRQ
# Test method notes: Biased agonist activity at human 5-HT1A receptor stably expressed in CHO-K1 cells assessed as increase in ERK1/2 phosphorylation after 15 mins by Alphalisa assay
Metric name: EC50 (nM)

> print(dat)
                      smiles.representation  metric.name  readout.number
1  O=C(c1ccc(Cl)c(Cl)c1)N1CCC(F)(CNCCOc2cccc(F)c2)CC1         EC50              20
2  O=C(c1ccc(F)c(Cl)c1)N1CCC(F)(CNCCOc2cccc3c2CCN3)CC1         EC50         0.00363

---

# Measured on: Adrenergic receptor alpha-1 (Rattus norvegicus, UniProt P15823+P23944+P43140)
# Test method notes: Displacement of [3H]prazosin from alpha1 adrenergic receptor in rat cortex membranes measured after 30 mins by Microbeta2 scintillation counting method
# Type: cell membranes
Metric name: pKi

> print(dat)
                      smiles.representation                               measured.on  result
1  O=C(c1ccc(F)c(Cl)c1)N1CCC(F)(CNCCOc2ccccc2Cl)CC1  Adrenergic receptor alpha-1 (Rattus norvegicus, UniProt P15823+P23944+P43140)     < 6
2  CN(C)c1cccc(OCCNCC2(F)CCN(C(=O)c3ccc(F)c(Cl)c3)CC2)c1  Adrenergic receptor alpha-1 (Rattus norvegicus, UniProt P15823+P23944+P43140)     < 6
3  COc1ccc(OCCNCC2(F)CCN(C(=O)c3ccc(Cl)c(Cl)c3)CC2)cc1  Adrenergic receptor alpha-1 (Rattus norvegicus, UniProt P15823+P23944+P43140)     < 6
4  CC(=O)Nc1cccc(OCCNCC2(F)CCN(C(=O)c3ccc(Cl)c(Cl)c3)CC2)c1  Adrenergic receptor alpha-1 (Rattus norvegicus, UniProt P15823+P23944+P43140)     < 6
5  O=C(c1ccc(F)c(Cl)c1)N1CCC(F)(CNCCOc2cccc3c2CCN3)CC1  Adrenergic receptor alpha-1 (Rattus norvegicus, UniProt P15823+P23944+P43140)    6.36
